# Organism: Cavia porcellus
# Protocol Notes: Compound was evaluated for irreversible antagonist activity in Guinea pig ileum (GPI) agonist (morphine) IC50 after antagonist treatment (20 nM) divided by the agonist control IC50
# Format: functional
Value Kind: IC50 ratio

• Oc1ccc2c3c1O[C@H]1[C@H](N=C=S)CCC4C(C2)N(CC2CC2)CCC341 (stereo not given in full) = 4.8
• CN(CCCl)[C@@H]1CCC2C3Cc4ccc(O)c5c4C2(CCN3CC2CC2)[C@H]1O5 (stereo not given in full) = 125
• COC(=O)/C=C/C(=O)N[C@@H]1CCC2C3Cc4ccc(O)c5c4C2(CCN3CC2CC2)[C@H]1O5 (stereo not given in full) = 1.58
• O=C(CI)N[C@@H]1CCC2C3Cc4ccc(O)c5c4C2(CCN3CC2CC2)[C@H]1O5 (stereo not given in full) = 3.05

Alright, here's another compound for you.
// sample COC(=O)/C=C/C(=O)N[C@@H]1CC[C@@]2(O)[C@H]3Cc4ccc(O)c5c4[C@@]2(CCN3CC2CC2)[C@H]1O5 , its IC50 ratio was 6

---

# Organism: Mus musculus
# Protocol Notes: Compound was evaluated for irreversible antagonist activity in Mouse vas deference(MVD) agonist (DADLE) IC50 after antagonist treatment (50 nM) divided by the agonist control IC50
# Assay type: functional
Overview of reported IC50 ratio across a group of compounds:

• CN(CCCl)[C@@H]1CCC2C3Cc4ccc(O)c5c4C2(CCN3CC2CC2)[C@H]1O5 (stereo not given in full) = 46.77
• COC(=O)/C=C/C(=O)N[C@@H]1CCC2C3Cc4ccc(O)c5c4C2(CCN3CC2CC2)[C@H]1O5 (stereo not given in full) = 2.29
• COC(=O)/C=C/C(=O)N[C@@H]1CC[C@@]2(O)[C@H]3Cc4ccc(O)c5c4[C@@]2(CCN3CC2CC2)[C@H]1O5 = 1.8
• O=C(CI)N[C@@H]1CCC2C3Cc4ccc(O)c5c4C2(CCN3CC2CC2)[C@H]1O5 (stereo not given in full) = 2.4

Reported IC50 ratio of Oc1ccc2c3c1O[C@H]1[C@H](N=C=S)CCC4C(C2)N(CC2CC2)CCC341 (stereo not given in full) : 1.96
